Test: Quantitative High-Throughput drug screen in 47 multiple myeloma cell lines against the NCATS MIPE library collection: OCIMY5_PLB cell viability assay (AID 1918988); further: nearly all actives have a fitted effect of over 65% in size
Conditions: OCI-MY5 myeloma viability, ATP luminescence, 48 h; series mostly up to 45.8 µM
Inconclusive results are not listed. Calls of active or inactive are those of the source. The call rests on the fitted dose curve; in most records, active means well fitted cell-killing curve with a large enough effect; inconclusive means small, poorly fitted or top-dose-only effect, or effect the other way; inactive means no such curve, though single readings can be large or run the other way.
Just give me one of these, please: 1 (active), 0 (inactive)

Please state the recorded outcome for this compound: Cn1c(Nc2ccc(C(F)(F)F)cc2)nc2cc(Oc3ccnc(-c4ncc(C(F)(F)F)[nH]4)c3)ccc21
1

Please state the recorded outcome for this compound: C[C@@]12C(=O)OC(=O)[C@@]1(C)C1CCC2O1
1

Please state the recorded outcome for this compound: Nc1ccc(C(=O)Nc2cccc(-c3nc(N4CCOCC4)c4oc5ncccc5c4n3)c2)cn1
1

Please state the recorded outcome for this compound: c1ccc(CNc2nc(NCc3ccccc3)c3ccccc3n2)cc1
1

Please state the recorded outcome for this compound: COc1ccc2cc([S+]([O-])Cc3ncc(C)c(OC)c3C)nc2c1
0

Please state the recorded outcome for this compound: NC[C@H]1O[C@H](O[C@H]2[C@@H](O)[C@@H](O[C@H]3O[C@H](CO)[C@@H](O)[C@H](N)[C@@H]3O)[C@H](N)C[C@@H]2N)[C@H](N)C[C@H]1O
0

Please state the recorded outcome for this compound: O=C(NNC(=O)c1ccc(CNS(=O)(=O)c2ccc(F)c(Cl)c2)cc1)c1ccccc1
0

Please state the recorded outcome for this compound: CN1[C@H]2CC(OC(=O)[C@@H](CO)c3ccccc3)C[C@H]1[C@H]1O[C@H]12 (some centres undefined)
0

Please state the recorded outcome for this compound: CCCCCCCCCCCCCCCC(=O)OC[C@@H](NC(=O)C(Cl)Cl)[C@H](O)c1ccc([N+](=O)[O-])cc1
0

Data provenance is PubChem BioAssay (NCATS).
